binders and their reported pKd
assay.system: T1, soluble human FcRn (shFcRn) (human, UniProt P55899 24-297; P61769 21-119)
T1 construct: Biotinylated for the ELISA, amine-coupled to a CM5 chip for SPR; also called biotinylated shFcRn
T1 sequence (P55899 24-297 limits assumed, chain 1 of 2): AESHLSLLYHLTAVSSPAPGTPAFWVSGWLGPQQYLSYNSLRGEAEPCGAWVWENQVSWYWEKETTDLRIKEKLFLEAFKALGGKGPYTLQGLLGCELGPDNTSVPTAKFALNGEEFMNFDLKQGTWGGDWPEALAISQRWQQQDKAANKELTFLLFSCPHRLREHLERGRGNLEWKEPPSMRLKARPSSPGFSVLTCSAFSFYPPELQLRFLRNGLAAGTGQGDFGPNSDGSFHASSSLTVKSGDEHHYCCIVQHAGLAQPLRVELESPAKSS
T1 sequence (P61769 21-119 limits assumed, chain 2 of 2): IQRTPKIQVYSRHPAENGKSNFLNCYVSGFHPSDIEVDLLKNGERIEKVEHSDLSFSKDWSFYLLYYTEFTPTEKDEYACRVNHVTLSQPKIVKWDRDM
experimental.protocol: SPR pH 6
Bridge positions count the residues as written; N and C are the ends. Square brackets hold non-standard residues; d marks the D form. Ends that are not written are not given here. Pen = CC(C)(S)[C@H](N)C(=O)O; Sar = CNCC(=O)O
Remember, pKd is on a log scale: it is -log10 of the molar concentration.

binder	pKd
QRF[Pen]TGHF[Sar]GLYPCNGP-NH2 (disulfide 4-14; N-terminus assumed; SMILES CC(C)C[C@@H]1NC(=O)CNC(=O)CN(C)C(=O)[C@H](Cc2ccccc2)NC(=O)[C@H](Cc2c[nH]cn2)NC(=O)CNC(=O)[C@H]([C@@H](C)O)NC(=O)[C@@H](NC(=O)[C@H](Cc2ccccc2)NC(=O)[C@H](CCCNC(=N)N)NC(=O)[C@@H](N)CCC(N)=O)C(C)(C)SSC[C@@H](C(=O)N[C@@H](CC(N)=O)C(=O)NCC(=O)N2CCC[C@H]2C(N)=O)NC(=O)[C@@H]2CCCN2C(=O)[C@H](Cc2ccc(O)cc2)NC1=O) [Peptide No. 111]	5.70

As a next step, examine the binder that follows.
Prompt: So what's the measured pKd for this one? QRF[Pen]TGHFGGLYPCNGP-NH2 (disulfide 4-14; N-terminus assumed; SMILES CC(C)C[C@@H]1NC(=O)CNC(=O)CNC(=O)[C@H](Cc2ccccc2)NC(=O)[C@H](Cc2c[nH]cn2)NC(=O)CNC(=O)[C@H]([C@@H](C)O)NC(=O)[C@@H](NC(=O)[C@H](Cc2ccccc2)NC(=O)[C@H](CCCNC(=N)N)NC(=O)[C@@H](N)CCC(N)=O)C(C)(C)SSC[C@@H](C(=O)N[C@@H](CC(N)=O)C(=O)NCC(=O)N2CCC[C@H]2C(N)=O)NC(=O)[C@@H]2CCCN2C(=O)[C@H](Cc2ccc(O)cc2)NC1=O) [Peptide No. 32]
Completion: 6.60
